Each entry below carries its recorded IR/IGF-1R ratio comparison.
target: T1, soluble human insulin receptor-immunoglobulin heavy chain chimera (sIR-Fc; Bass et al., 1996) (human, UniProt P06213-2 28-944); experiment: phage ELISA
T1 construct: extracellular domain; also called soluble IR (Bass construct); Eu3+-sIR-Fc; not shown: immunoglobulin heavy chain constant domains per Bass et al., 1996
T1 sequence (P06213 other isoform, or with tags, fused parts or gaps mutant): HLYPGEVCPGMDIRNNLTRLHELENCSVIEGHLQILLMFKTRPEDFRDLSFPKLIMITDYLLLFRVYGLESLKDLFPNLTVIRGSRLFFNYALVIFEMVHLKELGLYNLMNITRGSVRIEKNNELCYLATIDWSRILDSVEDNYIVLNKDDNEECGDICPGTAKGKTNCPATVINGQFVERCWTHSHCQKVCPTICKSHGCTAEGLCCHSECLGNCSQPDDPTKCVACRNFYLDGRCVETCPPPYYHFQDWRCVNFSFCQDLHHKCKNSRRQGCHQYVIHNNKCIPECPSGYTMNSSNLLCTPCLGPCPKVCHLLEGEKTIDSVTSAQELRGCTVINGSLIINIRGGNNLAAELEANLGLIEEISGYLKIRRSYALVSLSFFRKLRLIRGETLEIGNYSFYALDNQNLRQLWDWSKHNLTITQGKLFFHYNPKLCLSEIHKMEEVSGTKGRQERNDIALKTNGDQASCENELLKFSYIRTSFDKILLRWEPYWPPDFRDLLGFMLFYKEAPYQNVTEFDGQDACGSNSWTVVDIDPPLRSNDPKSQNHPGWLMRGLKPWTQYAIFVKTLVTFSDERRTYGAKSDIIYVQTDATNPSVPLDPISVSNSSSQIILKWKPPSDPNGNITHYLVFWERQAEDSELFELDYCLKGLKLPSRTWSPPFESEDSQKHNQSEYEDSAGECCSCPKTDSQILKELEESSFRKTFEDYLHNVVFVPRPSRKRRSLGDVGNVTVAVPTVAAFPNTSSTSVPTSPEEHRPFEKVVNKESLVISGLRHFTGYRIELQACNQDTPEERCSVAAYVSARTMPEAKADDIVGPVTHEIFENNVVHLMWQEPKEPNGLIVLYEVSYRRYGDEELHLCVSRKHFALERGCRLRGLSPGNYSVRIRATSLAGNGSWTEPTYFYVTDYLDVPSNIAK
No end group written: not given here.
Reply: number alone, nothing else.

Examples with their reported IR/IGF-1R ratio comparison follow.
• GNGDGMFYQLLSLLVGRDMHV [20E2B-3-C2-IGFR] = 0.1
• IIGGFYSYFNSVLRLGT (not fully specified) [NNRPγ-4-A1-IR] = 0.2

Quickly give me recorded IR/IGF-1R ratio comparison for GGTEVDFYRALERLVRGQLGL [20E2B-3-D8-IGFR]
0.1

Quickly give me recorded IR/IGF-1R ratio comparison for MMVVDGFYDALHQLVVAQSLG [20E2A-3-D10-IGFR]
0.3

Quickly give me recorded IR/IGF-1R ratio comparison for LQPCSGFYECIERLIGVKLSG (not fully specified; cysteine pairing not given here) [20E2Bβ-4-G7-IR]
0.1

Quickly give me recorded IR/IGF-1R ratio comparison for DRDFCRFYERLTALVGGQVDGGWPC [20C-3-F6-IGFR]
0.1

Quickly give me recorded IR/IGF-1R ratio comparison for LRIANLFYQRLWDLAFGGGG [20E2B-3-E8-IFGR]
0.1

Quickly give me recorded IR/IGF-1R ratio comparison for GGTKAVAKVGTRDDPFYHKLSELLQGS [B6Hα-4-G8-IR]
0.3

Quickly give me recorded IR/IGF-1R ratio comparison for QPAPDGFYSALMKLIGRGGVS [20E2B-3-C8-IGFR]
0.1
